B1: tRNA (parent)
chain: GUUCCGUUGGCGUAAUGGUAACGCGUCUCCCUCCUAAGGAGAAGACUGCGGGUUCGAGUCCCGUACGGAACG

# Variants of: B1
# assay: yeast fitness relative to wild type (ratio to wild type); higher = fitter; tRNA-Arg(CCU), competitive growth, 37 C, YPD
Variants at the floor of the assay were thinned out.
Outcome: Condition met for yeast fitness of at least 0.6; Condition not met for anything lower.

Answered examples (6):
> print(dat)
                         mutationdescriptor                cat
1                             U2A U16C A45C      Condition met
2                        G6A C22U C30G A36G      Condition met
3                   C5A A40C C46U G52C A70C  Condition not met
4                       A14G A43C A45G G50A  Condition not met
5  C5G A15G C27G U28A U32A A45G C46U G56C C61U      Condition met
6                       G17C C24G U28A C30U      Condition met

Incoming: // inclusive: yeast fitness at least 0.6? input: C27A A37G G39C C55U A65C
Outgoing: Condition not met

Incoming: I'd appreciate it if you could say whether G6C U7C has yeast fitness at least equal to 0.6.
Outgoing: Condition met

Incoming: Has C4A G25A a recorded yeast fitness greater than or equal to 0.6?
Outgoing: Condition met

Incoming: # check: yeast fitness of C33G A65G is greater than or equal to 0.6
Outgoing: Condition met

Incoming: Does yeast fitness meet or surpass 0.6 for C4U A21C C27G A43C G48A C66A ?
Outgoing: Condition not met

Incoming: Check if yeast fitness >= 0.6 (inclusive). Item: A42C C46A
Outgoing: Condition met

Incoming: Is yeast fitness at least 0.6? Consider G25A G68A
Outgoing: Condition met

Incoming: Does the variant G9A C29U U47A A65U have recorded yeast fitness that is 0.6 or more?
Outgoing: Condition not met

Incoming: Has C29G C55U A65C A70U a recorded yeast fitness greater than or equal to 0.6?
Outgoing: Condition not met

Incoming: Could you verify whether the entry C30G C33G A69C shows yeast fitness of no less than 0.6?
Outgoing: Condition not met

Incoming: Entry U16A C62U A69G : is its yeast fitness no less than 0.6?
Outgoing: Condition met

Incoming: Reported yeast fitness reaches at least 0.6 for G12C U32C A37C A45G A57C ?
Outgoing: Condition not met

Incoming: Please check the record G18C G41C A43C C55U and state if its yeast fitness is at or above 0.6.
Outgoing: Condition not met
